assay: Solubility of cannabidiol in solvents, oils and buffers at 25° C.; format: physicochemical; settings: organic solvent or mixture; 1,2-Dimethyloxyethane, 25° C.
valueKind: solubility

**Query** // returns reported solubility for input C=C(C)[C@@H]1CCC(C)=C[C@H]1c1c(O)cc(CCCCC)cc1O
**Result** > 100 mg/mL

* * *

assay: Solubility of cannabidiol in solvents, oils and buffers at 25° C.; type: physicochemical; conditions: organic solvent or mixture; methylcyclohexane, 25° C.
valueKind: solubility

**Query** Look at this compound and give its reported solubility. C=C(C)[C@@H]1CCC(C)=C[C@H]1c1c(O)cc(CCCCC)cc1O
**Result** > 100 mg/mL

* * *

assay: Solubility of cannabidiol in solvents, oils and buffers at 25° C.; format: physicochemical; details: organic solvent or mixture; Ethyl Formate, 25° C.
valueKind: solubility

**Query** // lookup solubility for C=C(C)[C@@H]1CCC(C)=C[C@H]1c1c(O)cc(CCCCC)cc1O [Cannabidiol]
**Result** > 100 mg/mL

* * *

assay: Solubility of cannabidiol in solvents, oils and buffers at 25° C.; format: physicochemical; details: Water, 25° C.
valueKind: solubility

**Query** # input compound: C=C(C)[C@@H]1CCC(C)=C[C@H]1c1c(O)cc(CCCCC)cc1O ; wanted: its solubility
**Result** < 100 µg/mL

* * *

assay: Solubility of cannabidiol in solvents, oils and buffers at 25° C.; type: physicochemical; conditions: organic solvent or mixture; Diethyl Ether, 25° C.
valueKind: solubility

**Query** Data request, read-out solubility, for C=C(C)[C@@H]1CCC(C)=C[C@H]1c1c(O)cc(CCCCC)cc1O
**Result** > 100 mg/mL

* * *

experiment: Solubility of cannabidiol in solvents, oils and buffers at 25° C.; type: physicochemical; conditions: organic solvent or mixture; Isobutanol, 25° C.
valueKind: solubility

**Query** Return reported solubility; argument: C=C(C)[C@@H]1CCC(C)=C[C@H]1c1c(O)cc(CCCCC)cc1O [Cannabidiol]
**Result** > 100 mg/mL

* * *

experiment: Solubility of cannabidiol in solvents, oils and buffers at 25° C.; assay type: physicochemical; details: organic solvent or mixture; Cyclohexane, 25° C.
valueKind: solubility

**Query** Item under review: C=C(C)[C@@H]1CCC(C)=C[C@H]1c1c(O)cc(CCCCC)cc1O . Reported solubility?
**Result** > 100 mg/mL

* * *

assay: Solubility of cannabidiol in solvents, oils and buffers at 25° C.; format: physicochemical; conditions: organic solvent or mixture; p-Xylene, 25° C.
valueKind: solubility

**Query** For the molecule shown here, C=C(C)[C@@H]1CCC(C)=C[C@H]1c1c(O)cc(CCCCC)cc1O , give the reported solubility.
**Result** > 100 mg/mL

* * *

assay: Solubility of cannabidiol in solvents, oils and buffers at 25° C.; assay type: physicochemical; conditions: organic solvent or mixture; Acetonitrile (ACN), 25° C.
valueKind: solubility

**Query** Suppose we examine the compound C=C(C)[C@@H]1CCC(C)=C[C@H]1c1c(O)cc(CCCCC)cc1O [Cannabidiol] ; what solubility value has been reported?
**Result** > 100 mg/mL

* * *

test: Solubility of cannabidiol in solvents, oils and buffers at 25° C.; assay type: physicochemical; details: aqueous buffer; Phosphate Buffer pH 6.5 without SLS, 25° C.
valueKind: solubility (µg/mL)
# value in µg/mL; strip the unit string

**Query** Which measured solubility value corresponds to C=C(C)[C@@H]1CCC(C)=C[C@H]1c1c(O)cc(CCCCC)cc1O [Cannabidiol] ?
**Result** 0.15
